System: 186277-243-T-J2-PDC complex spheroid viability;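 also: spheroids exposed to drugs for 7 days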
Assay: Anticancer human tumor 186277-243-T-J2-PDC patient-derived colon adenocarcinoma cell line growth inhibition [GQUAD]
Settings: curve of first compound; second compound 1 µM
pIC50: −log10 of the molar value.
Mark f for pIC50 values under 7, and t for everything at or above.

Input line: Given Cn1ncnc1[C@H]1c2n[nH]c(=O)c3cc(F)cc(c23)N[C@@H]1c1ccc(F)cc1 + Cc1[nH]c2ccc(F)cc2c1-c1nc2c3cccnc3c3ncccc3c2[nH]1 , state whether its pIC50 is at least 7.
Output line: f

Input line: Given Cn1ncnc1[C@H]1c2n[nH]c(=O)c3cc(F)cc(c23)N[C@@H]1c1ccc(F)cc1 + CN(C)c1ccc(Nc2c3ccc(NC(=O)CCN4CCCC4)cc3nc3cc(NC(=O)CCN4CCCC4)ccc23)cc1 , state whether its pIC50 is at least 7.
Output line: f

Input line: Given C=CC(=O)N1CCN(c2nc(=O)n(-c3c(C)ccnc3C(C)C)c3nc(-c4c(O)cccc4F)c(F)cc23)C(C)C1 (stereo not given) + Cc1[nH]c2ccc(F)cc2c1-c1nc2c3cccnc3c3ncccc3c2[nH]1 , state whether its pIC50 is at least 7.
Output line: f

Input line: Given CC1COCCN1c1cc(C2(S(C)(=N)=O)CC2)nc(-c2ccnc3[nH]ccc23)n1 (stereo not given) + Cc1cnc(CNC(=O)c2c(=O)c3ccc(N4CCCN(C)CC4)nc3n3c2sc2ccccc23)cn1 , state whether its pIC50 is at least 7.
Output line: f

Input line: Given O=c1[nH]cc(F)c(=O)[nH]1 + CN(C)c1ccc(Nc2c3ccc(NC(=O)CCN4CCCC4)cc3nc3cc(NC(=O)CCN4CCCC4)ccc23)cc1 , state whether its pIC50 is at least 7.
Output line: f

Input line: Given CCc1c2c(nc3ccc(O)cc13)-c1cc3c(c(=O)n1C2)COC(=O)[C@]3(O)CC + CN(C)c1ccc(Nc2c3ccc(NC(=O)CCN4CCCC4)cc3nc3cc(NC(=O)CCN4CCCC4)ccc23)cc1 , state whether its pIC50 is at least 7.
Output line: t

Input line: Given C=CCn1c(=O)c2cnc(Nc3ccc(N4CCN(C)CC4)cc3)nc2n1-c1cccc(C(C)(C)O)n1 + CN(C)c1ccc(Nc2c3ccc(NC(=O)CCN4CCCC4)cc3nc3cc(NC(=O)CCN4CCCC4)ccc23)cc1 , state whether its pIC50 is at least 7.
Output line: f

Input line: Given CC[C@@]1(O)C(=O)OCc2c1cc1n(c2=O)Cc2cc3c(CN(C)C)c(O)ccc3nc2-1 + Cc1[nH]c2ccc(F)cc2c1-c1nc2c3cccnc3c3ncccc3c2[nH]1 , state whether its pIC50 is at least 7.
Output line: f

Input line: Given CC1COCCN1c1cc(C2(O)CC3CCC(C2)O3)c2cnn(-c3ccn[nH]3)c2n1 (stereo not given) + Cc1[nH]c2ccc(F)cc2c1-c1nc2c3cccnc3c3ncccc3c2[nH]1 , state whether its pIC50 is at least 7.
Output line: t
